Entry source: the RNAGym collection of RNA variant scans (doi:10.1002/anie.201605470)

B1: Osa-1-4 twister ribozyme (parent)
chain: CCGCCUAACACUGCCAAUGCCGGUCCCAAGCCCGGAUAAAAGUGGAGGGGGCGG

Variants of: B1
assay.info: self-cleavage, relative activity (ratio to wild type); higher = more cleavage; co-transcriptional
value.type: self-cleavage
Keep the answer to the number alone.

// below: answered variants
- sequence.code: "CCGCCUAACACUGCCAAUGCCGUUCCCAAGCCCGGAUAAAAGGGGAGGGGGCGG [G23U U43G]"
  self-cleavage: 0.07
- sequence.code: "CCGCCUAACAUUGCCAAUGCCGGUCCCAAGCUCGGAUAAAAGUGGAGGGGGCGG [C11U C32U]"
  self-cleavage: 0.07
- sequence.code: "CCGCCUAACACUGCCAAUGCCGGUCCCAAGCCCGGAUAAAAGUGGAGGCGGGGG [C52G G49C]"
  self-cleavage: 0.07

Prompt: Reported self-cleavage, variant CCGCCUAACACUGCCAAGGCCGGUCCCAAGCCCGGAUAAAAGUGGAGGGGGUGG [C52U U18G] : ____
Completion: 0.86

Prompt: Reported self-cleavage, variant CCGCCUAACACUGCCAAUGCCGGUCCCUAGCCAGGAUAAAAGUGGAGGGGGCGG [A28U C33A] : ____
Completion: 0.08

Prompt: Reported self-cleavage, variant CCGCCUAACACUGCCAAUGCCGGUCCCACUCCCGGAUAAAAGUGGAGGGGGCGG [A29C G30U] : ____
Completion: 0.02

Prompt: Reported self-cleavage, variant CCGCCUAAGACUGCCAAUGCCGGUCCCAAGCCCGGAUAAAAGUGGAGGUGGCGG [C9G G49U] : ____
Completion: 0.09

Prompt: Reported self-cleavage, variant CCGCCUAACACUGCCAAUGCCGGUCCCAAGCCCGGAUAACCGUGGAGGGGGCGG [A40C A41C] : ____
Completion: 0.28

Prompt: Reported self-cleavage, variant CCGCCUAACACUGCCAAUGCCGGUCCCAAGACCGGAAAAAAGUGGAGGGGGCGG [C31A U37A] : ____
Completion: 0.03

Prompt: Reported self-cleavage, variant CCGCCUAACACUGCCAAUGCCGGUCCCAAGCCCGGAUAAAUGUGGAGGGGGCGU [A41U G54U] : ____
Completion: 0.99

Prompt: Reported self-cleavage, variant CCGCCUAACACUGCCAAUGCCGGUCCCGAGCCCGGAUAAAAGUGGAGGGCGCGG [A28G G50C] : ____
Completion: 0.14

Prompt: Reported self-cleavage, variant CCGCCUAACACUGCCAAUGCUGGUCCCAGGCCCGGAUAAAAGUGGAGGGGGCGG [A29G C21U] : ____
Completion: 0.17

Prompt: Reported self-cleavage, variant CCGCCUAACACUGCAAAUGCCGGUCCCAAGCCCGGAUAAAAGUGGAGGGGGCGA [C15A G54A] : ____
Completion: 0.19

Prompt: Reported self-cleavage, variant CCGCCUAACACUGCCAAUGCCGGUCCCACGCCUGGAUAAAAGUGGAGGGGGCGG [A29C C33U] : ____
Completion: 0.03

Prompt: Reported self-cleavage, variant CCGCCUAACACUUCCAAUGCCGGUCCCAAGCCCGGAUCAAAGUGGAGGGGGCGG [A38C G13U] : ____
Completion: 0.03

Prompt: Reported self-cleavage, variant CCGCCUAACACUGCCAAUGCCGGUCCCAAGCCCGGAUAAGGGUGGAGGGGGCGG [A40G A41G] : ____
Completion: 0.22

Prompt: Reported self-cleavage, variant CCGCCUAAUAGUGCCAAUGCCGGUCCCAAGCCCGGAUAAAAGUGGAGGGGGCGG [C11G C9U] : ____
Completion: 0.07

Prompt: Reported self-cleavage, variant CCGCCUAACACUGCCAAUGCCGGUCCCAAGCCCGGAUAAGAGUGGAGGGGUCGG [A40G G51U] : ____
Completion: 0.12

Prompt: Reported self-cleavage, variant CCGCCUCACACUGCCAAUGCCGGUCCCAAGACCGGAUAAAAGUGGAGGGGGCGG [A7C C31A] : ____
Completion: 0.01

Prompt: Reported self-cleavage, variant CCGCCUAACACUGGCAAUGGCGGUCCCAAGCCCGGAUAAAAGUGGAGGGGGCGG [C14G C20G] : ____
Completion: 0.16

Prompt: Reported self-cleavage, variant CCGCCUAACACUGCCAAUGCCGGUCCCAAGCCCGGAUAAAAGCGGAGGGGGCGG [U43C] : ____
Completion: 0.64
